Target: Sodium/hydrogen exchanger 1 (Homo sapiens, UniProt P19634)
Sequence (P19634 whole entry): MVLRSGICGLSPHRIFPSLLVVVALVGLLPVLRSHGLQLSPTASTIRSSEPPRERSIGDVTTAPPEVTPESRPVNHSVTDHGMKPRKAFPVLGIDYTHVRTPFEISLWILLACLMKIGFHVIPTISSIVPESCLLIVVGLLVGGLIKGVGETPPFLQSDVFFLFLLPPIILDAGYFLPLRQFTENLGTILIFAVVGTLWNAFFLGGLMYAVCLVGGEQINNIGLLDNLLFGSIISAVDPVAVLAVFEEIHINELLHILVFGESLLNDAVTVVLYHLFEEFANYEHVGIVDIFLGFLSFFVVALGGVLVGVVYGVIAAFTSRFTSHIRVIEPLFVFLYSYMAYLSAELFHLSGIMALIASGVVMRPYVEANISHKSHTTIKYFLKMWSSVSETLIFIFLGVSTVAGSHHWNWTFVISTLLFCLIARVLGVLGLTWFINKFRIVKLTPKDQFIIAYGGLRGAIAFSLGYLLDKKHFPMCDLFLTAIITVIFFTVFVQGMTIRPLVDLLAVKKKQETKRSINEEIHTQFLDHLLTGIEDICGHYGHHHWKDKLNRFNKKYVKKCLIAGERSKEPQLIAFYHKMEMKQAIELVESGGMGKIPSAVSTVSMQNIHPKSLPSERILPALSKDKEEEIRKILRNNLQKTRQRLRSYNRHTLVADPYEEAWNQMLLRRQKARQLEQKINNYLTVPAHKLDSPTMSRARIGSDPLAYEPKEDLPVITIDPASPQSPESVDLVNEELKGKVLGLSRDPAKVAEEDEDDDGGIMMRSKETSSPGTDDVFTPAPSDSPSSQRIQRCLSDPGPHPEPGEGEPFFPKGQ
For each of the compounds below, state its IC50.
Numbers only, in nM.

| Smi | Observed |
| --- | --- |
| C/C(=C\c1cccc(/C=C(\C)C(=O)NC(=N)N)c1)C(=O)N=C(N)N | 2 |

Tell me IC50 reported for C/C(=C\c1cc(C)ccc1/C=C(\C)C(=O)NC(=N)N)C(=O)N=C(N)N
3600

###

Molecular target: Sodium/hydrogen exchanger 3 (Homo sapiens)
Sequence (P48764 whole entry): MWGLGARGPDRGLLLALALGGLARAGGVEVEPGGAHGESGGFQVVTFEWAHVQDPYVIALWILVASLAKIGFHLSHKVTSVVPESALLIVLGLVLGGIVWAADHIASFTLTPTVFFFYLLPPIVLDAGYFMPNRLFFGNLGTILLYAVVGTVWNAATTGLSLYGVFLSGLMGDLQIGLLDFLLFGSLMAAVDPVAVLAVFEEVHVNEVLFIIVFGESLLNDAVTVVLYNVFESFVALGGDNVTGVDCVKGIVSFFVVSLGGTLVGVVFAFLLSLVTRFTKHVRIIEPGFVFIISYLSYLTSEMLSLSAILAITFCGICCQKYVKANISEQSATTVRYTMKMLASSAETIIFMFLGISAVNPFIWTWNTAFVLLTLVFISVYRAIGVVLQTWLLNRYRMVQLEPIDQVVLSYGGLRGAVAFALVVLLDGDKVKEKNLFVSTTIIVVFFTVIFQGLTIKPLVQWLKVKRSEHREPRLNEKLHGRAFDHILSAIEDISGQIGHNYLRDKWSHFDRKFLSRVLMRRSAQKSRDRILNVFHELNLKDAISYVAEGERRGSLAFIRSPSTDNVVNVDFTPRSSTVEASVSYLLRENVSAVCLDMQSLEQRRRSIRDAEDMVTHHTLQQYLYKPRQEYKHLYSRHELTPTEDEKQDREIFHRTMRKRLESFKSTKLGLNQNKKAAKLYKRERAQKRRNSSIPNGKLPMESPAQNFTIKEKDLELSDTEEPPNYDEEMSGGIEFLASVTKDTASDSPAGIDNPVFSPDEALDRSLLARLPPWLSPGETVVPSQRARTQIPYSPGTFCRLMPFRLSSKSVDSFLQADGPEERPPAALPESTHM
Measured Metric: IC50 (µM)
Answers are plain numbers, in µM.

| Smi | Unit Abbrev | IC50 |
| --- | --- | --- |
| Cc1ccc(F)cc1[C@@H]1C/C(=N\N=C(N)N)c2c(C)cccc2C1 | µM | 11 |

Read the next record carefully.
Tell me IC50 reported for C/C(=C\c1cccc(/C=C(\C)C(=O)NC(=N)N)c1)C(=O)N=C(N)N
1.32

Hey, just so you know, these numbers are from ChEMBL document CHEMBL3881530.
